- system: WT-LRRK2 (recombinant GST-LRRK2 delta970) (Homo sapiens)
- Construct: Recombinant GST-LRRK2 (delta970); GST (N); host or cells: baculovirus-infected Sf9 insect cells
- Sequence (Q5S007 970-2527 limits assumed): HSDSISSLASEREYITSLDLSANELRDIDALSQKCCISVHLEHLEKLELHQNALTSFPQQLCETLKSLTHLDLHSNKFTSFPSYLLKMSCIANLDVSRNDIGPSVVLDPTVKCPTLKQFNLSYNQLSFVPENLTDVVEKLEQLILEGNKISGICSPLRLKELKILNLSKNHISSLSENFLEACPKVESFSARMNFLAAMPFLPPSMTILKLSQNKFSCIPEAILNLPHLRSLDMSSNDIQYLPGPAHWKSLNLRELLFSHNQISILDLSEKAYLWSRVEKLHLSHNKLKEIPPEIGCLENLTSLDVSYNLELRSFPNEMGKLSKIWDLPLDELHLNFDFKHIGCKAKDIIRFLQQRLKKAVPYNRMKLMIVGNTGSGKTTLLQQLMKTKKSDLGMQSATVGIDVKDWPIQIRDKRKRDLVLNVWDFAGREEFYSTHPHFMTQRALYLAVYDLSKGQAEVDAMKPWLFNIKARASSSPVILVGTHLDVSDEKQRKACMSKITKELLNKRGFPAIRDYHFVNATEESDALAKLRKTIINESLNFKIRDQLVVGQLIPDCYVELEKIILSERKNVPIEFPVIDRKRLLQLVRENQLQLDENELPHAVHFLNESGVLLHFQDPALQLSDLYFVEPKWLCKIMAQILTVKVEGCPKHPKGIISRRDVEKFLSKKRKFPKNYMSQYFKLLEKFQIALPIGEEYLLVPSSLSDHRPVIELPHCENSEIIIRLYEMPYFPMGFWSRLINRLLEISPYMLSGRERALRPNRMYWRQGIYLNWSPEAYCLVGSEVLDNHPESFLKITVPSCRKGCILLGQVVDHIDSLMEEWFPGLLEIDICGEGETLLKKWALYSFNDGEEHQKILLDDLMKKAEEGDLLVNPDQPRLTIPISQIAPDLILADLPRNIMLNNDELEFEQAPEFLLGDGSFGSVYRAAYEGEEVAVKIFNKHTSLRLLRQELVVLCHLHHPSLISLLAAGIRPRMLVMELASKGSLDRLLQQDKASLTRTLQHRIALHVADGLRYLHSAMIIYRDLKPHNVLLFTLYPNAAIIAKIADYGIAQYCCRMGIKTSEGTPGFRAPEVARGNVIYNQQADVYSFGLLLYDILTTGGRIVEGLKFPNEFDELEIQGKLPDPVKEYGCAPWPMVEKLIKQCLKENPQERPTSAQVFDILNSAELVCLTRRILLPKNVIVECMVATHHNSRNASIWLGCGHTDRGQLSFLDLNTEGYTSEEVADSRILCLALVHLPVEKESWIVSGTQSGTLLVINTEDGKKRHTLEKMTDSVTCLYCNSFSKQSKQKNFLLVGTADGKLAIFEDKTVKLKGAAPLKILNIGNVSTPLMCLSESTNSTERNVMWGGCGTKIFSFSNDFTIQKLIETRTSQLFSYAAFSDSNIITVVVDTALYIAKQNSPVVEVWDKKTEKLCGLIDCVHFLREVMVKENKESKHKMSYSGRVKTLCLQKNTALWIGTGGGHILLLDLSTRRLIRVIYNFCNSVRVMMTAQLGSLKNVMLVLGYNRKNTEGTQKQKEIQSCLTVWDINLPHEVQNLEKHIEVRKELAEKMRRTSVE
- experiment.summary: LRRK2 kinase assay, wild type (32P radiometric, peptide substrate)
- Type: biochemical
- protocol.conditions: WT-LRRK2 30 nM, ATP ~92 μM (Km), 30 min at 30° C.
value.kind: IC50

A selection of reference data follows.
* COCC(C)n1cc(Nc2nc(N(C)[C@@H](C)C3CC3)c3cc[nH]c3n2)cn1 (stereo partly shown) | 0.027 µM
* Cc1c(Nc2nc(N[C@@H](C)c3ccccc3)c3cc[nH]c3n2)cnn1C(C)C | 0.055 µM
* Cc1cc(Nc2nc(N[C@@H](C)C3CC3)c3nc[nH]c3n2)n[nH]1 | 0.019 µM

Problem: Give the reported IC50 for this compound. "C[C@H](Nc1nc(Nc2cn([C@H]3CCOC3)nn2)nc2[nH]ccc12)C1CC1"
Result: 0.066 µM

The values you see were collected from patent US10023579B2.
